The measured values listed here are drawn from PubChem BioAssay AID651820.

assay: qHTS Assay for Inhibitors of Hepatitis C Virus (HCV); conditions: Huh7.5.1 HCVcc-Cre infection, luciferase reporter, 44 h; series mostly up to 41.8 µM
In all, about 340,000 compounds went through this assay and about 12,000 (3.5%) were called active. About 18% were inconclusive and are not listed. Calls come from the whole dose curve; as a rule, active = well fitted inhibition curve with a large enough effect; inconclusive = small, poorly fitted or top-dose-only effect, or another doubt; inactive = no such curve, though single readings can be large or run the other way. What follows is part of a selection rich in actives, with near analogues and random picks from the rest.
Respond only with the outcome that fits, drawn from true (1) (active), false (0) (inactive)

Outcome logged for CC(=O)Nc1ccc(Nc2c3ccccc3nc3ccccc23)cc1 in this assay:
true (1)

Outcome logged for Cc1ccc(Nc2c3c(nc4ccccc24)CCC3)cc1 in this assay:
false (0)

Outcome logged for Cc1cccc(N(Cc2ccccc2)C(=O)c2cc(S(=O)(=O)N3CCOCC3)ccc2F)c1 in this assay:
false (0)

Outcome logged for Cc1nn(-c2ccccc2)nc1C(=O)OCC(=O)N1CCCCC1C (stereo not given) in this assay:
false (0)

Outcome logged for CCCCN(C(=O)c1cccc(N2C(=O)c3ccccc3C2=O)c1)c1c(N)n(CCCC)c(=O)[nH]c1=O in this assay:
false (0)

Outcome logged for O=C(CSc1nc2[nH]ncc2c(=O)[nH]1)Nc1ccc(F)cc1 in this assay:
false (0)

Outcome logged for O=C(CNC(=O)c1ccccc1Br)NNC(=O)c1cccs1 in this assay:
false (0)

Outcome logged for CCOC(=O)C1=C(c2ccccc2)NC(=O)NC1c1cc(OC)c(OC)cc1OC (stereo not given) in this assay:
false (0)

Outcome logged for COc1ccc(S(=O)(=O)N2CCc3ccccc32)cc1C(=O)Nc1cc(S(C)(=O)=O)ccc1Cl in this assay:
false (0)

Outcome logged for O=C(COC(=O)CN1C(=O)C2CCCCC2C1=O)Nc1ccc(F)c(F)c1F (stereo not given) in this assay:
false (0)

---

test: qHTS Assay for Inhibitors of Hepatitis C Virus (HCV); conditions: Huh7.5.1 HCVcc-Cre infection, luciferase reporter, 44 h; series mostly up to 41.8 µM
The campaign covered roughly 340,000 compounds. About 12,000 (3.5%) were called active. Inconclusive results (about 18%) are left out. The call rests on the fitted dose curve; in most records, active means well fitted inhibition curve with a large enough effect; inconclusive means small, poorly fitted or top-dose-only effect, or another doubt; inactive means no such curve, though single readings can be large or run the other way. This excerpt belongs to a sample that is enriched for actives.
Respond only with the outcome that fits, drawn from active, inactive

Outcome logged for O=C(CSc1ncnc2sccc12)NC1CCS(=O)(=O)C1 (stereo unspecified) in this assay:
inactive

Outcome logged for O=C(C(c1ccccc1)c1ccccc1)N1CCN(CC(O)COc2ccccc2)CC1 (stereo unspecified) in this assay:
inactive

Outcome logged for OC(COc1ccccc1)Cn1cc(Br)cn1 (stereo unspecified) in this assay:
inactive

Outcome logged for N=C(N)SCc1cccc2ccccc12 in this assay:
active

Outcome logged for OC(CN=c1sc2ccccc2n1CC(O)COc1ccccc1)COc1ccccc1 (stereo unspecified) in this assay:
active

Outcome logged for O=C(CN1CCN(c2ccccc2O)CC1)NC(=O)NCc1ccccc1 in this assay:
inactive

---

experiment: qHTS Assay for Inhibitors of Hepatitis C Virus (HCV); settings: Huh7.5.1 HCVcc-Cre infection, luciferase reporter, 44 h; series mostly up to 41.8 µM
About 12,000 (3.5%) of roughly 340,000 compounds were called active. Roughly 18% stayed inconclusive and do not appear here. The call rests on the fitted dose curve; in most records, active means well fitted inhibition curve with a large enough effect; inconclusive means small, poorly fitted or top-dose-only effect, or another doubt; inactive means no such curve, though single readings can be large or run the other way. The full list was thinned out, with actives kept by preference.
Respond only with the outcome that fits, drawn from active, inactive

Outcome logged for CC(=O)Nc1cccc(C(=O)Nc2nc(C)cs2)c1 in this assay:
inactive

Outcome logged for O=c1c(Cl)c(NC2CC2)cnn1-c1ccccc1 in this assay:
inactive

Outcome logged for CCc1ccc(Nc2n[n+](-c3ccccc3)c(-c3cccc(Cl)c3Cl)s2)cc1 in this assay:
active

Outcome logged for CCN(C(=O)COC(=O)CCOc1cccc(C)c1)c1c(N)n(Cc2ccccc2)c(=O)[nH]c1=O in this assay:
inactive

Outcome logged for CC(OC(=O)c1c(F)cccc1F)C(=O)NCCC1=CCCCC1 (stereo not drawn) in this assay:
inactive

Outcome logged for O=C(NCCc1ccc(F)cc1)c1ccc2nccnc2c1 in this assay:
inactive

Outcome logged for O=C(OCCOc1ccccc1Cl)c1cc(S(=O)(=O)N2CCCCC2)ccc1N1CCOCC1 in this assay:
active

Outcome logged for Cc1csc(NC(=S)Nc2cccc(Cl)c2)n1 in this assay:
active

Outcome logged for COc1cc(Br)c(-c2sc(Nc3ccccc3)n[n+]2-c2ccccc2)cc1OC in this assay:
inactive

Outcome logged for O=[N+]([O-])c1ccc(NS(=O)(=O)c2ccccc2)c(Cl)c1 in this assay:
inactive

Outcome logged for Cc1cc(NC(=O)CSc2nnc(-c3ccco3)n2N)no1 in this assay:
inactive

Outcome logged for S=C(Nc1cccc(Cl)c1)Nc1ccc2cn[nH]c2c1 in this assay:
inactive

Outcome logged for CC1CCCCC1NCC(=O)Nc1ccccc1C(=O)Nc1ccccc1 (stereo not drawn) in this assay:
active

Outcome logged for Cc1ccc(S(=O)(=O)N2CCCCC2)cc1C(=O)N1CCN(CCO)CC1 in this assay:
inactive

Outcome logged for COc1ccc(S(=O)(=O)N2CCCCC2)cc1NC(=O)c1cc([N+](=O)[O-])ccc1N1CCOCC1 in this assay:
active

Outcome logged for Cc1ccc(Nc2c(O)nc[nH]c2=O)cc1C in this assay:
inactive

Outcome logged for COc1cc(CN2CCC(n3nccc3NC(=O)CCCc3ccccc3)CC2)ccc1O in this assay:
inactive

Outcome logged for COc1ccccc1CNC(=O)CSc1nc(=O)n(Cc2ccncc2)c2c1CCC2 in this assay:
inactive

Outcome logged for O=C(NC1CCCCC1)c1cc([N+](=O)[O-])ccc1N1CCOCC1 in this assay:
inactive

Outcome logged for Cc1ccc(Nc2nnc(SCc3ccccc3)s2)cc1 in this assay:
inactive

Outcome logged for CC(=O)Nc1ccc(NC(=O)COC(=O)c2ccccc2C(=O)c2ccccc2)cc1 in this assay:
inactive

Outcome logged for O=C(NCC1CCCCC1)c1cc(S(=O)(=O)N2CCCCC2)ccc1N1CCOCC1 in this assay:
inactive

Outcome logged for O=C(OCCOc1ccccc1F)c1cc(S(=O)(=O)N2CCOCC2)ccc1F in this assay:
inactive
